Below, each entry is listed alongside its reported protein stability index.
B1: HDAC6 (parent)
chain: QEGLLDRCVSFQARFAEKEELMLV

# Variants of: B1
# assay_details: protein stability index of a GFP-peptide fusion (GPS, HEK-293T) (PSI 1-6); higher = more stable;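 note: lentivirally expressed fusions sorted by FACS into six bins by GFP to DsRed ratio, PSI derived from sequencing read proportions per bin multiplied by bin number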
# conditions: c terminus: a fixed tail appended

{"variant_spec": "V24W", "protein stability index": 2.21}
{"variant_spec": "G3Y", "protein stability index": 1.31}
{"variant_spec": "R14A", "protein stability index": 1.4}
{"variant_spec": "L5F", "protein stability index": 1.33}
{"variant_spec": "E19P", "protein stability index": 2.18}
{"variant_spec": "Q12I", "protein stability index": 2.57}
{"variant_spec": "E20Y", "protein stability index": 1.67}
{"variant_spec": "Q1V", "protein stability index": 1.54}
{"variant_spec": "L5E", "protein stability index": 3.01}
{"variant_spec": "Q1A", "protein stability index": 1.94}
{"variant_spec": "Q12A", "protein stability index": 1.66}
{"variant_spec": "V9P", "protein stability index": 2.36}
{"variant_spec": "E2A", "protein stability index": 1.12}
{"variant_spec": "S10Q", "protein stability index": 2.1}
{"variant_spec": "E19Y", "protein stability index": 1.53}
{"variant_spec": "G3F", "protein stability index": 1.06}
{"variant_spec": "A16R", "protein stability index": 2.62}
{"variant_spec": "L5P", "protein stability index": 1.83}
{"variant_spec": "L4I", "protein stability index": 1.79}
{"variant_spec": "Q12R", "protein stability index": 1.58}
{"variant_spec": "K18V", "protein stability index": 1.96}
{"variant_spec": "L5R", "protein stability index": 1.78}
{"variant_spec": "G3K", "protein stability index": 2.16}
{"variant_spec": "A13H", "protein stability index": 2.59}
{"variant_spec": "C8K", "protein stability index": 2.45}
{"variant_spec": "V9F", "protein stability index": 1.63}
{"variant_spec": "L5H", "protein stability index": 1.67}
{"variant_spec": "Q12C", "protein stability index": 2.1}
{"variant_spec": "L21T", "protein stability index": 2.73}
{"variant_spec": "F11C", "protein stability index": 3.17}
{"variant_spec": "F15P", "protein stability index": 3.02}
{"variant_spec": "F15G", "protein stability index": 2.54}
{"variant_spec": "R14F", "protein stability index": 1.56}
{"variant_spec": "L21I", "protein stability index": 1.59}
{"variant_spec": "A16V", "protein stability index": 1.5}
{"variant_spec": "D6M", "protein stability index": 1.87}
{"variant_spec": "E20P", "protein stability index": 2.01}
{"variant_spec": "S10G", "protein stability index": 1.82}
